Test system: UACC-62 melanoma
Assay: NCI-60 one-dose screen, 48 h (100 = growth as untreated, 0 = no growth, -100 = all killed)
Settings: 10 µM
The panel holds about 83,000 compounds, 20% with a hit somewhere; the sample as a whole holds those more often.
So basically: growth at 90% or higher? That is t. Lower than 90%? That is f.

Tell me whether growth is at least 90% here: CC/C(=C(/c1ccc(OCCN(C)C)cc1)c1ccc(OC(=O)CCCCCCCCC(=O)c2c(C)[nH]c(/C=C3\N=C(c4ccc[nH]4)C=C3OC)c2C)cc1)c1ccccc1
f

Also need Clc1ccc(/C=C2\CCCC3=C2N=C2SC=NN2C3c2ccc(Cl)cc2)cc1 (stereo unspecified) , thanks.
f

What do you get for COc1ccc(OC)c(/C=C/c2nc(SCc3ccccc3)n(-c3ccc(Cl)cc3)n2)c1 ?
f

----------
Test system: MOLT-4 leukemia
Test: NCI-60 one-dose screen, 48 h
Settings: 10 µM
About 83,000 compounds went through this panel and 20% of them were active in at least one assay; those are over-represented in the sample as a whole. The source made the active and inactive calls. Rule for the calls: active = growth percent below 10; inactive = the rest.
The reply should be one of these categories: Yes = active, No = inactive

// known answers, use as guide
# Compound, Cat
data = [
    ("O=C1Nc2ccccc2C1=NC1CCCCC1", "No"),
    ("c1ccc(CNc2ncnc3scc(-c4cccs4)c23)nc1", "No"),
    ("CN1CCC(CNc2cc(C3(C(=O)Nc4cc(C(=O)Nc5ccc(Cl)c(C(F)(F)F)c5)ccc4F)CC3)ncn2)CC1", "Yes"),
    ("O=C(/C=C/c1cc2ccccc2[nH]c1=O)c1ccc2c(c1)OCO2", "No"),
    ("Cc1nc2ccccc2c(N)c1-c1cc(C)c2c(C)nc3ccccc3c2n1", "Yes"),
]

Next:
Which outcome was assigned to CCCN(CCC)CCC(O)c1cc2c(c3ccccc13)CCCC2 (stereo unspecified) in this test?
No

----------
Test system: HCT-116 colon
Assay: NCI-60 one-dose screen, 48 h (100 = growth as untreated, 0 = no growth, -100 = all killed)
Details: 10 µM
This is part of a sample that, as a whole, favours compounds with a hit. Of some 83,000 tested, about 20% had one in any assay.
Assign growth to each entry below.
Numbers only, in %.

The cases that follow already have their growth on record.
# Compound, Quantity Kind, Numeric Readout
data = [
    ("COc1cc(-c2nc(Nc3nc4ccccc4s3)[nH]c(=O)c2C#N)cc(OC)c1O", "growth", 94.7),
    ("CCN(CC)CCN1CC(=O)Nc2cc(Cl)ccc21", "growth", 102),
    ("COc1ccc(-c2nc3ncccn3c2-c2nnc(-c3ccc(F)cc3)o2)cc1", "growth", 99.3),
    ("COc1ccc2c(c1)sc1nc(-c3ccccc3)c(-c3cccnc3)n12", "growth", 78.5),
    ("O=C(Nc1ccncc1)C(=O)c1cn(S(=O)(=O)c2cc(Cl)cc(Cl)c2)c2ccccc12", "growth", 51.4),
    ("CN(C)CCOc1nc2ccccc2c2c1-c1ccc(Cl)cc1C2=O", "growth", 1.69),
]

Consider the following items and state reported growth for each.
1. O=C(/C(=C/c1ccccc1)CN1CCCCC1)c1ccccc1
2. COc1ccc(-c2nn(-c3cccc(NC(=O)Nc4ccccc4)c3)cc2-c2ccncc2)cc1Cl
3. COc1ccc(Oc2nc(NC3CCCC3)nc(Sc3ccc(OC)cc3)n2)cc1
4. Clc1cccc(-c2nc(-c3cccs3)no2)c1

-87.4
5.36
45.1
92.4
